test system: SF-295 CNS; test: NCI-60 one-dose screen, 48 h (100 = growth as untreated, 0 = no growth, -100 = all killed); conditions: 10 µM
The panel holds about 83,000 compounds, 20% with a hit somewhere; the sample as a whole holds those more often.
reported_endpoint: growth (%)
Give a bare numeral; the unit % is implied.

Lookup: Entry Cc1c(C(N)=O)sc2c1c(=O)n(Cc1ccccc1)c1nnc(-c3ccc(Br)cc3)n21 has what growth?
Found: 15.8

Lookup: growth for COc1cc2cc(Oc3ccc(NC(=O)Nc4ccc(Cl)c(C(F)(F)F)c4)cc3)c(C)nc2cc1OC ?
Found: -70.9

Lookup: Entry Cc1noc(C)c1CSc1ccccc1C(=O)N1CCN(c2cccc(C(F)(F)F)c2)CC1 : reported growth = ?
Found: 75.2

Lookup: What growth value was documented for this molecule, Nc1c(Br)cc(Br)c2c1[nH]c(=O)c1ccccc12 ?
Found: 73.1

Lookup: Please look up its growth: O=C(CCCCNC(=O)c1nc(-c2ccccc2)n(-c2ccccc2)n1)NO
Found: 93.6

Lookup: Which value of growth has been reported for O=C(Nc1ccc(NS(=O)(=O)c2ccc(F)cc2)cc1)C12CC3CC(CC(C3)C1)C2 in the records?
Found: 91.2

Lookup: Look up growth for this molecule: COc1ccc(N(C)c2ncnc3occ(C)c23)cc1
Found: -8.16

Lookup: Query: growth; subject: Cc1ccc(C(SCC(N)C(=O)O)(c2ccc(C)cc2)c2ccc(C)cc2)cc1 (stereo not given)
Found: -13.8

Lookup: Find the recorded growth belonging to COc1cc(-c2nn(-c3ccc(NC(=O)NCCCNC(=O)c4ccccc4)cc3)cc2-c2ccncc2)ccc1Cl and report it.
Found: 0.436

Lookup: Which growth is listed for CN1CCc2c(sc3nc4n(-c5ccc(Cl)cc5)cnn4c(=O)c23)C1 ?
Found: 102

Lookup: Dear colleague, I am looking for the recorded growth of the following molecule: O=C1/C(=C/c2cccc(F)c2)Cc2ccccc21
Found: 77.9

Lookup: Report growth for O=C1c2ccccc2C(=O)N1CCCCNc1ccccc1 please.
Found: 98

Lookup: // lookup growth for CCCCCCCCCCCCCCCCCC[n+]1ccc2c(C)c3c(c(C)c2c1)c1cc(O)ccc1n3CC
Found: -1.22

Lookup: I would be grateful if you could share the reported growth for CNC(=O)c1cn(C2CC2)c2cc(N3CCN(C(=O)c4cc(OC)c(OC)c(OC)c4)CC3)c(F)cc2c1=O .
Found: 98

Lookup: Quick check: growth of Cc1ccc(/C=C/C(=O)C(=O)/C=C/c2ccc(C)cc2)cc1 ?
Found: 101

Lookup: Given the molecule C=C(C)[C@@H]1CC[C@]2(COCCC#N)CC[C@]3(C)[C@H](CC[C@@H]4[C@@]5(C)Cc6c([nH]c7ccccc67)C(C)(C)[C@@H]5CC[C@]43C)[C@@H]12 , what is its reported growth?
Found: 104

Lookup: Consider the molecule CS(=O)(=O)c1nccc(-c2c(-c3ccc(OCCc4ccccc4)cc3)nc3sccn23)n1 and give its measured growth.
Found: 108

Lookup: Data request, read-out growth, for C1CN(CC2CCC(CN3CCOCC3)O2)CCO1 (stereo not given)
Found: 99.7

Lookup: Fill in the blank: the reported growth of O=C(N/N=C/c1ccc([N+](=O)[O-])cc1)c1ccccc1Nc1cccc(C(F)(F)F)c1 is ____.
Found: 105

Lookup: Field request: growth | item: CCn1cc(C(=O)O)c(=O)c2cc(F)c(N3CCNCC3)cc21
Found: 93

The reported numbers originate from PubChem BioAssay (NCI).
